// provenance: patent US20230227427A1

- system name: human recombinant IL-17A (Homo sapiens, UniProt Q16552)
- Construct: purchased R&D Systems 7955-IL/CF
- Sequence (Q16552 24-155): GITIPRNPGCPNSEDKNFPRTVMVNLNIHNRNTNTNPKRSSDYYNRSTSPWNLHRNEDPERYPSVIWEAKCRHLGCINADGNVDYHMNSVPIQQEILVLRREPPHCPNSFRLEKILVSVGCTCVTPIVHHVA
- test name: IL-17A AlphaLISA assay (block binding of IL-17A to its receptor IL-17RA)
- measurement setup: compounds pre-incubated with the IL-17A for 30 min (indicated by * in Table A); read-out: AlphaLISA pIC50 (converted)
measured property: IC50 (nM)
Answer with a number only, understood to be in nM.

For CCn1nccc1C(=O)N[C@H](C(=O)Nc1ccc(-c2c(C)nnn2C)cn1)[C@H]1CC[C@H](C)CC1 , what is its reported IC50?
100

Fill in the blank: the reported IC50 of Cc1c(-c2ccc(NC(=O)C(NC(=O)c3ccnn3C)C3CCCCCCC3)cc2)ccc(=O)n1C (stereo not shown) is ____.
158

GET /values?readout=IC50&item= Cc1nn(C)c(C)c1-c1ccc(NC(=O)[C@@H](NC(=O)c2ccnn2C)[C@H]2CC[C@H](C)CC2)nc1
501

Given the molecule Cc1nnn(CC(=O)N(C)C)c1-c1ccc(NC(=O)[C@@H](NC(=O)c2ccnn2C)C2CCCCCC2)nc1 , what is its reported IC50?
794

For CCn1nccc1C(=O)N[C@H](C(=O)Nc1cnc(-c2c(C)cnn2C)nc1)[C@H]1CC[C@H](C)CC1 , what is its reported IC50?
398

I am curious: what IC50 value has been reported for Cc1cnn(C)c1-c1ccc(NC(=O)[C@@H](NC(=O)c2cnnn2C)C2CCCCCC2)nc1 ?
251

Reported IC50, molecule Cc1noc(C)c1-c1ccc(NC(=O)[C@@H](NC(=O)c2ccnn2C(C)C)[C@H]2CC[C@H](C)CC2)nc1 : ____
79.4
